test system: RAW264.7; test: Antiinflammatory activity in LPS-stimulated mouse RAW264.7 cells assessed as iNOS protein expression at 10 uM after 16 hrs by immunoblot analysis relative to control; conditions: RAW264.7, 16 h
value type: iNOS protein level (% of LPS control) at 10 µM (%)
// units = %; emit number, no label

C=C1C(=O)O[C@@H]2[C@@H]1C[C@H](OC(C)=O)[C@@](O)(COC(C)=O)CC/C=C(\C)CC/C=C(\C)[C@H]2O (relative stereo) [DURUMOLIDE G]    7.3
C=C1C(=O)O[C@H]2C(=O)/C(C)=C/CC/C(C)=C/CC[C@@]3(CO)O[C@@H]3C[C@H]12 (relative stereo) [DURUMOLIDE K]    5.7
C=C1C(=O)O[C@H]2C(=O)/C(C)=C/CC/C(C)=C/CC[C@@]3(C=O)O[C@@H]3C[C@H]12 (relative stereo) [DURUMOLIDE L]    1.2

Quick note, iNOS protein level (% of LPS control) at 10 µM for C=C1C(=O)O[C@H]2C/C(C)=C/CC/C(C)=C/CC[C@@]3(CO)O[C@@H]3C[C@H]12 [SINULAROLIDE D] landed at 2.2
